measured on: PHD1 (EGLN2) (Homo sapiens (Human))
Sequence (Q96KS0 whole entry): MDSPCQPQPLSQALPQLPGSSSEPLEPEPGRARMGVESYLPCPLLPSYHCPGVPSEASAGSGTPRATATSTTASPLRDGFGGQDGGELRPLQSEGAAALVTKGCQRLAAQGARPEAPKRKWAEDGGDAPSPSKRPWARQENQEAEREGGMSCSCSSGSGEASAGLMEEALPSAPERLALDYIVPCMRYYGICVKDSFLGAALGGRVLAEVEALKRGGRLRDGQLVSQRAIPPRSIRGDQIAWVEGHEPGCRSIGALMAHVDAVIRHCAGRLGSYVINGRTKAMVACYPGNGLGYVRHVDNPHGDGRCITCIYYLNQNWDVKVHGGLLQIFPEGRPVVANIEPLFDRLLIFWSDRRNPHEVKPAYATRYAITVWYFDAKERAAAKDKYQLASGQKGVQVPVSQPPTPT
method notes: HIF-PH assay (14CO2 capture), PHD1 enzyme inhibition
Assay type: biochemical
run parameters: Table 1; ratio of the IC50 of the compound for each enzyme
measure name: PHD2/PHD1

# annotated cases, reported PHD2/PHD1 shown
> print(dat)
                                   compound                          measured.on  measure.name  assay.value
1  CC(C)(CNC(=O)c1nc(C#N)c2cc(NC(=O)c3ccc(F)cc3)ccc2c1O)C(=O)O  PHD1 (EGLN2) (Homo sapiens (Human))     PHD2/PHD1           35
2  CC(C)(CCCNC(=O)c1nc(C#N)c2cc(Oc3ccccc3)ccc2c1O)C(=O)O  PHD1 (EGLN2) (Homo sapiens (Human))     PHD2/PHD1            5
3  N#Cc1nc(C(=O)NC(CC(=O)O)c2ccccc2)c(O)c2ccc(Oc3ccccc3)cc12 (centres unmarked)  PHD1 (EGLN2) (Homo sapiens (Human))     PHD2/PHD1            6
4  CC(CCC(=O)O)NC(=O)c1nc(C#N)c2cc(Oc3ccccc3)ccc2c1O (centres unmarked)  PHD1 (EGLN2) (Homo sapiens (Human))     PHD2/PHD1            9
5  N#Cc1nc(C(=O)NCC(F)(F)C(=O)O)c(O)c2ccc(Oc3ccccc3)cc12  PHD1 (EGLN2) (Homo sapiens (Human))     PHD2/PHD1            8

1 = CC(C)(CNC(=O)c1nc(-c2ccccc2)c2cc(Oc3ccccc3)ccc2c1O)C(=O)O
2 = N#Cc1nc(C(=O)N[C@@H](CO)CC(=O)O)c(O)c2ccc(Oc3ccccc3)cc12
Please tell me which of the two, 1 or 2 , has the higher reported PHD2/PHD1 value. Your choice should be expressed through its label.
2
(2: 24, 1: 8)

Where do these numbers come from? They come from patent US9409892B2.
